Rule for this label: Yes means boiling point is less than 200 °C; No means boiling point is at least 200 °C.

Problem: Lab note: confirm whether the reported boiling point for this compound is below 200 °C, equality not counting. compound: CC(C)C(C)C(C)C
Result: Yes

* * *

- measurement context: fish
recorded metric: log10 biotransformation half-life (days)
Give your answer as a number; write no unit.

Problem: Sample Oc1ccc(Cl)c(Cl)c1 — what was its log10 biotransformation half-life (days)?
Result: -0.92

Problem: Recorded log10 biotransformation half-life (days) of CCCCCCCCCCCCCC , please.
Result: 1.49

Problem: What value of log10 biotransformation half-life (days) has been recorded for this entry: CCOc1ccc(NC(C)=O)cc1
Result: -0.55
